Target: GLP-1 receptor (GLP-1R) (human, UniProt P43220 24-463)
Assay: cell-based or functional assay
Starred links: 1 amine or outer side, 2 acyl side, 3 side chain; linkers in the order of their positions; H or OH if unused. Non-standard residues stand in square brackets, D forms with d. Groups on a side chain read outwards from the residue. Primed or numbered codes have the meaning given here. No end group written: not given here. *: point of attachment. Dodecanoyl(12-OPh(4-COOH)) = O=C(O)c1ccc(OCCCCCCCCCCCC(=O)*)cc1; γGlu = O=C(O)[C@H](CCC(=O)[*:2])N[*:1]; Stearoyl = CCCCCCCCCCCCCCCCCC(=O)*; αMeF = C[C@](N)(Cc1ccccc1)C(=O)O; αMeK = C[C@](N)(CCCCN)C(=O)O; Lauroyl = CCCCCCCCCCCC(=O)*; αMeS = C[C@](N)(CO)C(=O)O; PEG2′ = not defined here; Aib = CC(C)(N)C(=O)O
Hi! Just check whether cAMP Primary assay EC50 GLP-1R n2 is below 6000 pM. Below gives true, equal or above gives false.

>>> class_name("H[Aib]EGS[αMeF]TSDK([PEG2′-PEG2′-γGlu-Stearoyl])[αMeS]S[αMeF]LEGEAA[αMeK]E[αMeF]IA[αMeF]VV[αMeK]GG-NH2 [SEQ ID NO 119]")
"true"
>>> class_name("H[Aib]EGS[αMeF]TSDV[αMeS]S[αMeF]LEGEAAK([PEG2′-PEG2′-PEG2′-Lauroyl])E[αMeF]IA[αMeF]VV[αMeK]GG-NH2 [SEQ ID NO 136]")
"true"
>>> class_name("H[Aib]EGS[αMeF]TSDV[αMeS]S[αMeF]LEGEAA[αMeK]E[αMeF]K([PEG2′-PEG2′-γGlu-Stearoyl])A[αMeF]VV[αMeK]GG-NH2 [SEQ ID NO 106]")
"true"
>>> class_name("H[Aib]EGS[αMeF]TSDV[αMeS]S[αMeF]LEGEAAK([PEG2′-PEG2′-Lauroyl])E[αMeF]IA[αMeF]VV[αMeK]GG-NH2 [SEQ ID NO 135]")
"true"
>>> class_name("H[Aib]EGS[αMeF]TSDV[αMeS]S[αMeF]LEGEAAK([PEG2′-Stearoyl])E[αMeF]IA[αMeF]VV[αMeK]GG-NH2 [SEQ ID NO 152]")
"true"
>>> class_name("H[Aib]EGS[αMeF]TK([PEG2′-PEG2′-γGlu-Stearoyl])DV[αMeS]S[αMeF]LEGEAA[αMeK]E[αMeF]IA[αMeF]VV[αMeK]GG-NH2 [SEQ ID NO 121]")
"false"
>>> class_name("H[Aib]EGS[αMeF]TSK([PEG2′-PEG2′-γGlu-Stearoyl])V[αMeS]S[αMeF]LEGEAA[αMeK]E[αMeF]IA[αMeF]VV[αMeK]GG-NH2 [SEQ ID NO 120]")
"true"
>>> class_name("HK([PEG2′-PEG2′-γGlu-Stearoyl])EGS[αMeF]TSDV[αMeS]S[αMeF]LEGEAA[αMeK]E[αMeF]IA[αMeF]VV[αMeK]GG-NH2 [SEQ ID NO 127]")
"false"
>>> class_name("H[Aib]EGS[αMeF]TSDV[αMeS]S[αMeF]LEGEAAK([PEG2′-Dodecanoyl(12-OPh(4-COOH))])E[αMeF]IA[αMeF]VV[αMeK]GG-NH2 [SEQ ID NO 143]")
"true"
